- condition details: buffer; pH 7.4; 200.0 µM
readout name: log10 of solubility kinetic (log10 of the value in µg/mL)
log10 solubility kinetic, µg/mL

Guide cases for log10 of solubility kinetic, answers given:
compound	log10 of solubility kinetic
COc1ccc(-c2ccc(S(=O)(=O)N3CCCC3)cc2)cc1	0.04
O=C(c1c[nH]c2ccccc12)N1CCOCC1	1.42
NC(=O)COC(=O)C1c2ccccc2Oc2ccccc21	1.62

# get_value(readout='log10 of solubility kinetic', item= CCOC(=O)C1(C)Oc2ccc(S(=O)(=O)CC)cc2NC1=O (configuration not stated) )
1.63

# get_value(readout='log10 of solubility kinetic', item= "Cc1ccc(NC(=O)O/N=C/c2cccc([N+](=O)[O-])c2)cc1" )
0.97

---

- condition details: buffer; pH 7.4; 200.0 µM
Outcome label depends on solubility kinetic relative to 10 µg/mL: at/above gives rule met, below gives rule not met.

Reference set (8 entries):
molecule	cat
CCCCS(=O)(=O)N1CCCC(C(=O)Oc2ccc(Cl)cc2)C1 (configuration not stated)	rule not met
CCOc1ccc(CNC(=O)c2ccco2)cc1	rule met
CCc1noc(C)c1C(=O)NCCc1ccccc1	rule met
Nc1cc(Cl)ccc1C(=O)OCC(=O)NCc1cccs1	rule not met
Cc1cccc(C)c1NC(=O)CNC(=O)c1ccccc1	rule met
COc1ccc(OC)c(-c2nc3ccccc3nc2-c2ccccc2)c1	rule not met
O=C(O)C1C2CCC(O2)C1C(=O)Nc1ccc(Br)cc1F (configuration not stated)	rule met
CC(=O)c1ccc(NC(=O)Nc2ccncc2)cc1	rule met

Threshold query (solubility kinetic >= 10 µg/mL) on "COc1ccccc1CCNC(=O)c1nccnc1C(=O)O"
rule met

Threshold query (solubility kinetic >= 10 µg/mL) on "CCc1ccccc1NC(=O)C1CCN(c2cnccn2)CC1"
rule met

Threshold query (solubility kinetic >= 10 µg/mL) on "COc1ccc(-n2c(C)cc(-c3cn4cccc(C)c4n3)c2C)cc1"
rule met

---

- condition details: buffer; pH 7.4; 200.0 µM
Measured solubility kinetic by item

Guide cases for solubility kinetic, answers given:
compound	recorded measurement
C[N+]1(CCOC(=O)C2(c3ccccc3)CCCC2)CCCCC1	> 47.5 µg/mL
Cc1nc2ccc(Br)cc2c(-c2ccccc2)c1C(=O)O	> 51.3 µg/mL
COC(=O)[C@@H](N)CCCN=C(N)N[N+](=O)[O-].Cl	> 40.5 µg/mL
CNC(=O)Cn1ncc2c3ccccc3n(C)c2c1=O	> 40.5 µg/mL

Alright, here's another compound for you.
# get_value(readout='solubility kinetic', item= Cc1ccc(NC(=O)N2CCCC2C(=O)NCC2CCCO2)cc1 (stereo not given) )
> 49.7 µg/mL

---

Measured log10 of solubility kinetic by item
- condition details: buffer; pH 7.4; 200.0 µM
log10 solubility kinetic, µg/mL

Guide cases for log10 of solubility kinetic, answers given:
compound	log10 of solubility kinetic
CC(O)CNCCCCOc1ccc(OCc2ccccc2)cc1 (stereo unspecified)	1.61
Clc1nc2ccccc2nc1-c1ccccc1	-0.22
Cn1c(=O)oc2cc(S(=O)(=O)Nc3ccc(Cl)cc3)ccc21	0.61
CC1CCN(CC(O)COC2CC(C)CC(C)(C)C2)CC1.Cl (stereo unspecified)	1.66
O=[N+]([O-])c1ccc(NCc2ccc(Cl)cc2)c2ccncc12	-0.52

# get_value(readout='log10 of solubility kinetic', item= "COC(=O)c1cc(OC)c(OC)c(OC)c1[N+](=O)[O-]" )
1.59

# get_value(readout='log10 of solubility kinetic', item= "O=[N+]([O-])c1cccc(S(=O)(=O)NCc2ccccn2)c1" )
1.61

# get_value(readout='log10 of solubility kinetic', item= "CCOCCCn1cnc2c3cc(F)ccc3n(C)c2c1=O" )
1.02
